- Study Target: CFP1 CXXC domain (Homo sapiens, UniProt Q9P0U4 161-222)
- Sequence (Q9P0U4 161-222): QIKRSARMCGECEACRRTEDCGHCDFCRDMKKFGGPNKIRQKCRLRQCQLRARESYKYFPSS
- Procedure Summary: ITC
Recorded Kd by entry
Numeric only. Scale: µM

Previously resolved entries follow.
[[record]]
binder = "GCGG (dsDNA) DNA 1: GCCAGCGGTGGC DNA 2: GCCACCGCTGGC"
value_reported = 3

[[record]]
binder = "ACGG (dsDNA) DNA 1: GCCAACGGTGGC DNA 2: GCCACCGTTGGC"
value_reported = 2.5

[[record]]
binder = "CCGG2 (dsDNA) DNA 1: GCCCCCGGGGGC DNA 2: GCCCCCGGGGGC"
value_reported = 4.4


Tell us which Kd value is on record for CCGG1 (dsDNA) DNA 1: GCCACCGGTGGC DNA 2: GCCACCGGTGGC
3.5
